- target: human TLR7 (Homo sapiens (Human), UniProt Q9NYK1)
- Sequence (Q9NYK1 27-1049): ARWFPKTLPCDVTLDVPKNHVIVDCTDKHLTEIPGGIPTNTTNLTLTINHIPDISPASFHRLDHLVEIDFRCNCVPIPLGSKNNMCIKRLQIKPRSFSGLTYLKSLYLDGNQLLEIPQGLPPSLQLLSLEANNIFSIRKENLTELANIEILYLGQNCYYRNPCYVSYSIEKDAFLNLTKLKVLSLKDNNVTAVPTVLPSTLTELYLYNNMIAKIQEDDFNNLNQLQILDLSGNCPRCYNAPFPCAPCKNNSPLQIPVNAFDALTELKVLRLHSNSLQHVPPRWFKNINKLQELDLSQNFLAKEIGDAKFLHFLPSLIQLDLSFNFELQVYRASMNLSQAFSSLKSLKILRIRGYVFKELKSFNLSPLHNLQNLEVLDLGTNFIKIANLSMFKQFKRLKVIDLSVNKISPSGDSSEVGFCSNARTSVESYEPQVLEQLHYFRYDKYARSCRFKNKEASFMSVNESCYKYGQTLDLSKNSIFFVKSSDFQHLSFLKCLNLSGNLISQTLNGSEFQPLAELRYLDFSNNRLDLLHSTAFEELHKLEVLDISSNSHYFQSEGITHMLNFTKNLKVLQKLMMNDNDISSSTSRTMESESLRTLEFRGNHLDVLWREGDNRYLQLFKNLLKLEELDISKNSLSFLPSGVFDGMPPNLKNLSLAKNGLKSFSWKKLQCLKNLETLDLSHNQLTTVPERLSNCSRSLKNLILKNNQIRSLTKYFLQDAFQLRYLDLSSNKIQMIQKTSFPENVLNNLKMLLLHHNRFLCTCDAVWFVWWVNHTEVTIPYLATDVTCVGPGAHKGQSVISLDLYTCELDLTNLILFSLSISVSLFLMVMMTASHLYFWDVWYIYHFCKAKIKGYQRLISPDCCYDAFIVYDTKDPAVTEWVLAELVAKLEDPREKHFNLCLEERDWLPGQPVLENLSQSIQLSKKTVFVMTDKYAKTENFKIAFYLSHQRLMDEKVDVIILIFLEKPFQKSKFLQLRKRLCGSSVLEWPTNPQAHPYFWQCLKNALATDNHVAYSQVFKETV
- test: TLR7 inhibition reporter assay (HEK-Blue, SEAP)
- condition.details: HEK-Blue cells overexpressing human TLR7, gardiquimod 7.5 μM stimulation
readout.kind: IC50 (nM)

>  <molecule>
Cc1cc(-c2[nH]c3ccc(-c4nnc([C@@H]5CCC[C@@H]5N)o4)cc3c2C(C)C)ccn1

>  <IC50 (nM)>
30

$$$$
>  <molecule>
CC(C)c1c(-c2ccnc3[nH]ncc23)[nH]c2ccc(-c3cccc(CO)c3)cc12

>  <IC50 (nM)>
771

$$$$
>  <molecule>
Cc1cc(-c2[nH]c3ccc(-c4nnc(CCN(C)C)o4)cc3c2C(C)C)ccn1

>  <IC50 (nM)>
47

$$$$
>  <molecule>
Cc1cc(-c2[nH]c3ccc(-c4cc5c(s4)CN(C(=O)CS(C)(=O)=O)CC5)cc3c2C(C)C)cc(C)n1

>  <IC50 (nM)>
53

$$$$
>  <molecule>
CNCCNc1ccc(-c2ccc3[nH]c(-c4cc(C)nc(C)c4)c(C(C)C)c3c2)cn1

>  <IC50 (nM)>
4.8

$$$$
>  <molecule>
C#CCNCc1nnc(-c2ccc3[nH]c(-c4ccc(OC)c(OC)c4)c(C(C)C)c3c2)o1

>  <IC50 (nM)>
917

$$$$
>  <molecule>
Cc1cc(-c2[nH]c3ccc(-c4ccnc(N5CCN(C)CC5)c4)cc3c2C(C)C)ccn1

>  <IC50 (nM)>
74

$$$$
>  <molecule>
Cc1cc(-c2[nH]c3ccc(-c4nnc(Cc5c[nH]cn5)o4)cc3c2C(C)C)ccn1

>  <IC50 (nM)>
258

$$$$
>  <molecule>
Cc1cc(-c2[nH]c3ccc(-c4ccnc(C5CCN(C(C)C)CC5)c4)cc3c2C(C)C)cc(C)n1

>  <IC50 (nM)>
13

$$$$
>  <molecule>
COc1ccc(-c2[nH]c3ccc(-c4nnc(C(=O)N(C)CCCN(C)C)o4)cc3c2C(C)C)cc1OC

>  <IC50 (nM)>
49

$$$$

1 = Cc1cc(-c2[nH]c3ccc(-c4nnc(C(=O)NCCCN(C)C)o4)cc3c2C(C)C)cc(C)n1
2 = Cc1cc(-c2[nH]c3ccc(-c4nnc(C5CCCNC5)[nH]4)cc3c2C(C)C)ccn1 (stereo not shown) [Example 164]
3 = CNC(=O)CN1CCC(c2nnc(-c3ccc4[nH]c(-c5ccnc6[nH]ncc56)c(C(C)C)c4c3)o2)CC1
Provide the items ranked by increasing IC50. Response format: the labels, sorted as the prompt asks.
1, 2, 3
(1: 11 nM, 2: 45 nM, 3: 294 nM)

a = COc1ccc(-c2[nH]c3ccc(-c4nnc(CCn5ccnc5)o4)cc3c2C(C)C)cc1OC
b = Cc1cc(-c2[nH]c3ccc(-c4nc(C(=O)N[C@H]5CC[C@H](N)CC5)co4)cc3c2C(C)C)cc(C)n1
c = Cc1cc(-c2[nH]c3ccc(-c4nnc([C@H]5Cc6ccccc6CN5)o4)cc3c2C(C)C)ccn1
Sequence the entries by IC50, beginning with the highest number. Response format: the labels, sorted as the prompt asks.
c, a, b

====

- target: human TLR9 (Homo sapiens (Human))
- Sequence (Q9NR96 26-1032): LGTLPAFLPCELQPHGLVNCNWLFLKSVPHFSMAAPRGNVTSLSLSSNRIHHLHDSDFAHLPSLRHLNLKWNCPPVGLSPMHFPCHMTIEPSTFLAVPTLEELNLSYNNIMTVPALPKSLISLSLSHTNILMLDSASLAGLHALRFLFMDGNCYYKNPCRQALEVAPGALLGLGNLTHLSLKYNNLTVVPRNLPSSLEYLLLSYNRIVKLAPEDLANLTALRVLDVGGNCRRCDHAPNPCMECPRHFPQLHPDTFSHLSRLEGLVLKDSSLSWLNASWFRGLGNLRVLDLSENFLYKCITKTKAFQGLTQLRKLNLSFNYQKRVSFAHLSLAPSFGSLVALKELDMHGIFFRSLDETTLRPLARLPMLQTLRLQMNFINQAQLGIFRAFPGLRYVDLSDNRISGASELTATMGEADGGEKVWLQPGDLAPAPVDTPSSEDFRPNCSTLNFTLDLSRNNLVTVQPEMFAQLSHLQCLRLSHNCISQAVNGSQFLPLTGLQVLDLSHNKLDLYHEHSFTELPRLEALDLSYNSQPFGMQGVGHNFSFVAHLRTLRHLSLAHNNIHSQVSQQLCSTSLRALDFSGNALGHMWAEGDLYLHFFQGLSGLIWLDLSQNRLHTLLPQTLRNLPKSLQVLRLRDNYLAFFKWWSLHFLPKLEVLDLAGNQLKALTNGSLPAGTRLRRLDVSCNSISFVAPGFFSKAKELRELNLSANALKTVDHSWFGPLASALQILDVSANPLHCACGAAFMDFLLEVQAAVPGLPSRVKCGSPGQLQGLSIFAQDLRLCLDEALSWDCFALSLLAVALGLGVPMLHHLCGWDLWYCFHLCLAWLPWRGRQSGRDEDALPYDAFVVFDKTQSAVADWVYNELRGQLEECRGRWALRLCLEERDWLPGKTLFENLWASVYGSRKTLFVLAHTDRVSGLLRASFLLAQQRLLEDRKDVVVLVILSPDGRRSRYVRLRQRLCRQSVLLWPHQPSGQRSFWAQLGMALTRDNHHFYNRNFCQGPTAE
- test: TLR9 inhibition reporter assay (HEK-Blue, SEAP)
- condition.details: HEK-Blue cells overexpressing human TLR9, ODN2006 5 nM stimulation
pIC50: −log10 of the molar value.
readout.kind: pIC50

1 = Cc1cc(-c2[nH]c3ccc(-c4nnc(C5CCNCC5)o4)cc3c2C(C)C)ccn1 [Example 66]
2 = CC(C)c1c(-c2ccnc3n[nH]cc23)[nH]c2ccc(-c3nnc(CN4CCCC4)o3)cc12 [Example 128]
Would you kindly point out which of 1 and 2 has the smaller pIC50 figure? Refer to your chosen item by its label in the answer.
2

====

- target: UniProt Q9NYK1
- test: TLR7 inhibition reporter assay (HEK-Blue, SEAP)
- condition.details: HEK-Blue cells overexpressing human TLR7, gardiquimod 7.5 μM stimulation
readout.kind: IC50 (nM)

Worked cases, answers included:
>  <molecule>
COc1ccc(-c2[nH]c3ccc(-c4cccc(N5CCN(C(C)C)CC5)c4)cc3c2C(C)C)cc1OC [Example 370]

>  <endpoint.unit>
nM

>  <measured.result>
3920

$$$$
>  <molecule>
CCc1c(-c2ccnc(C)c2)[nH]c2ccc(-c3noc(C4CNC4)n3)cc12 [Example 458]

>  <endpoint.unit>
nM

>  <measured.result>
163

$$$$
>  <molecule>
CCc1c(-c2ccc(OC)c(OC)c2)[nH]c2ccc(-c3noc(C4CCNC4)n3)cc12 (centres unmarked) [Example 450]

>  <endpoint.unit>
nM

>  <measured.result>
121

$$$$

P = CCc1c(-c2ccc(OC)c(OC)c2)[nH]c2ccc(-c3noc(C4CCNCC4)n3)cc12 [Example 459]
Q = Cc1cc(-c2[nH]c3ccc(-c4nnc([C@@H](N)C5CC5)o4)cc3c2C(C)C)ccn1 [Example 268]
R = Cc1cc(-c2[nH]c3ccc(-c4cc5c(s4)CN(CC(=O)N(C)C)CC5)cc3c2C(C)C)ccn1 [Example 311]
S = Cc1cc(-c2[nH]c3ccc(-c4ccc(Cl)nc4)cc3c2C(C)C)ccn1 [Example 235]
T = Cc1cc(-c2[nH]c3ccc(-c4nnc(C5CCCN(C(C)C)C5)[nH]4)cc3c2C(C)C)ccn1 (centres unmarked) [Example 204]
Provide the items ranked by increasing IC50. Response format: the labels, sorted as the prompt asks.
T, R, Q, P, S

====

- target: human TLR9 (Homo sapiens (Human))
- test: TLR9 inhibition reporter assay (HEK-Blue, SEAP)
- condition.details: HEK-Blue cells overexpressing human TLR9, ODN2006 5 nM stimulation
readout.kind: IC50 (nM)

Worked cases, answers included:
>  <compound>
CC(C)c1c(-c2ccnc3[nH]ncc23)[nH]c2ccc(-c3nnc(C(=O)NC4CCN(C(C)C)CC4)s3)cc12

>  <measured.result>
926

$$$$
>  <compound>
CN[C@@H](C)c1nnc(-c2ccc3[nH]c(-c4ccc(OC)c(OC)c4)c(C(C)C)c3c2)o1

>  <measured.result>
11500

$$$$
>  <compound>
CC(C)CN1CCC(NC(=O)c2nnc(-c3ccc4[nH]c(-c5ccnc6[nH]ncc56)c(C(C)C)c4c3)o2)CC1

>  <measured.result>
686

$$$$
>  <compound>
CCc1c(-c2ccc(OC)c(OC)c2)[nH]c2ccc(-c3noc([C@@H](N)CCCCN)n3)cc12

>  <measured.result>
2730

$$$$
>  <compound>
CNCCNc1ccc(-c2ccc3[nH]c(-c4ccc(OC)c(OC)c4)c(C(C)C)c3c2)cc1

>  <measured.result>
9680

$$$$

I = Cc1cc(-c2[nH]c3ccc(-c4nnc(CN5CCN(C)CC5)o4)cc3c2C(C)C)ccn1
II = COc1ccc(-c2[nH]c3ccc(-c4nnc(CN5CC6CNCC6C5)o4)cc3c2C(C)C)cc1OC (stereo not drawn)
Would you kindly point out which of I and II has the smaller IC50 figure? Refer to your chosen item by its label in the answer.
I

A = COc1ccc(-c2[nH]c3ccc(-c4cnc(N5CCNCC5)cc4C)cc3c2C(C)C)cc1OC
B = COc1ccc(-c2[nH]c3ccc(-c4ccc(NCCCN(C)C)cc4)cc3c2C(C)C)cc1OC
C = CC(C)c1c(-c2ccnc3[nH]ncc23)[nH]c2ccc(-c3nnc([C@@H]4CCCNC4)o3)cc12
D = COc1ccc(-c2[nH]c3ccc(-c4nnc([C@H]5CCCNC5)o4)cc3c2C(C)C)cc1OC
Sequence the entries by IC50, beginning with the highest number. Response format: the labels, sorted as the prompt asks.
B, A, D, C

====

- target: human TLR9 (Homo sapiens (Human))
- test: TLR9 inhibition reporter assay (HEK-Blue, SEAP)
- condition.details: HEK-Blue cells overexpressing human TLR9, ODN2006 5 nM stimulation
readout.kind: IC50 (µM)

Worked cases, answers included:
>  <compound>
COc1ccc(-c2[nH]c3ccc(-c4ccc5c(c4)CCNC5)cc3c2C(C)C)cc1OC

>  <target>
human TLR9 (Homo sapiens (Human))

>  <IC50 [µM]>
6.88

$$$$
>  <compound>
COc1ccc(-c2[nH]c3ccc(-c4nnc(C5CCN(C)CC5)o4)cc3c2C(C)C)cc1OC

>  <target>
human TLR9 (Homo sapiens (Human))

>  <IC50 [µM]>
0.821

$$$$
>  <compound>
COc1ccc(-c2[nH]c3ccc(-c4ccc5c(c4)NCCC5)cc3c2C(C)C)cc1OC

>  <target>
human TLR9 (Homo sapiens (Human))

>  <IC50 [µM]>
5

$$$$
>  <compound>
Cc1cc(-c2[nH]c3ccc(-c4ccc(N5CCN(CCO)CC5)nc4)cc3c2C(C)C)cc(C)n1

>  <target>
human TLR9 (Homo sapiens (Human))

>  <IC50 [µM]>
0.523

$$$$
>  <compound>
COc1ccc(-c2[nH]c3ccc(-c4ccc(-c5cncc6ccccc56)cc4)cc3c2C(C)C)cc1OC

>  <target>
human TLR9 (Homo sapiens (Human))

>  <IC50 [µM]>
0.29

$$$$

a = COc1ccc(-c2[nH]c3ccc(-c4cccc(C(=O)N5CCC(O)CC5)c4)cc3c2CC(F)(F)F)cc1OC
b = COc1ccc(-c2[nH]c3ccc(-c4cccc(C(=O)N5CCN(CC(=O)NC(C)C)CC5)c4)cc3c2CC(F)(F)F)cc1OC
Would you kindly point out which of a and b has the smaller IC50 figure? Refer to your chosen item by its label in the answer.
b
